Each entry below lists one item and its recorded log P value.
assay type: physicochemical; details: HPLC on reversed phase columns, method [a]: pH 2.7, 0.1% formic acid in water / acetonitrile, linear gradient 10% to 95% acetonitrile

Reference set, count: 3
* C#Cc1cnc2ccc(C3=NOC(C)(C(=O)NCc4cn(CC)nc4OC)C3)cc2c1 (stereo not shown) | 2.35[a]
* C#Cc1cnc2ccc(C3=NOC(C)(C(=O)NC(C)c4ccc(Cl)nc4)C3)cc2c1 (stereo not shown) | 2.68[a]
* C#Cc1cnc2c(C)cc(C3=NOC(C)(C(=O)NCc4cn(CC)nc4C)C3)cc2c1 (stereo not shown) | 2.62[a]

Alright, here's another molecule for you.
Reported log P of C#Cc1cnc2ccc(C3=NOC(C)(C(=O)NCC4OCCc5ccccc54)C3)cc2c1 (single isomer, unassigned) [compound 262] : 3.13^[a]

* * *

assay type: physicochemical; conditions: HPLC on reversed phase columns, method [a]: pH 2.7, 0.1% formic acid in water / acetonitrile, linear gradient 10% to 95% acetonitrile
measurement_type: log P

Reported log P of CC(NC(=O)C1(C)CC(c2ccc3ncc(Br)cc3c2)=NO1)C(F)(F)F (centres unmarked) : 3.13[a]

Reported log P of CCOCCCNC(=O)C1(OC)CC(c2cc(C)c3ncc(Br)cc3c2)=NO1 (centres unmarked) : 3.39[a]

* * *

Each entry below lists one item and its recorded Log P value.
details: Table 2, formula (II); method [a]: pH 2.7, 0.1% formic acid in water / acetonitrile gradient

Reference set, count: 5
- COC(=O)C1(C)CC(c2cc(C)c3ncc(Br)cc3c2)=NO1 (stereo not drawn): 3.55[a]
- COC(=O)C1(C)ON=C(c2ccc3ncc(Br)cc3c2)C1C (mixture of isomers): 2.94[a]
- COC(=O)C1(C)CC(c2ccc3nc(C#N)c(Br)cc3c2)=NO1 (stereo not drawn): 3.02[a]
- CC1(C(=O)O)CC(c2ccc3nc(Cl)c(Br)cc3c2)=NO1 (stereo not drawn): 2.57[a]
- COC(=O)C1(C(C)=NO)CC(c2ccc3ncc(Br)cc3c2)=NO1 (stereo not drawn): 2.58[a]

Reported Log P of COC(=O)C1ON=C(c2ccc3ncc(Br)cc3c2)C12CC2 (stereo not drawn) : 2.71[a]

* * *

Each entry below lists one item and its recorded % of efficacy (protection) value.
system: Septoria tritici; assay: In vivo preventive test on Septoria tritici (leaf spot on wheat); conditions: 500 ppm; wheat plants sprayed 24 hours before contamination; grading 21 to 28 days after contamination vs control plants
Answer in %, number only, no unit symbol.

- CC1(C(=O)NC2CCC2)CC(c2ccc3ncc(Br)cc3c2)=NO1 (centres unmarked): 86

The compound C#Cc1cnc2ccc(C3=NOC(C)(C(=O)NC(C)c4ccccc4)C3)cc2c1 (centres unmarked) , when measured on Septoria tritici, yielded % of efficacy (protection) of 100

The compound C#Cc1cnc2ccc(C3=NOC(OC)(C(=O)N(C(C)C)C4CC4)C3)cc2c1 (centres unmarked) , when measured on Septoria tritici, yielded % of efficacy (protection) of 97

The compound CC1COCCC1NC(=O)C1(C)CC(c2ccc3ncc(Br)cc3c2)=NO1 (mixture of isomers) , when measured on Septoria tritici, yielded % of efficacy (protection) of 86

The compound C#Cc1cnc2ccc(C3=NOC(OC)(C(=O)N(OC)C(C)C)C3)cc2c1 (centres unmarked) , when measured on Septoria tritici, yielded % of efficacy (protection) of 100

* * *

assay type: physicochemical; details: method [a]: HPLC/LC-MS on reversed phase at pH 2.7, 0.1% formic acid in water and acetonitrile, linear gradient 10% to 95% acetonitrile
measurement_type: Log P

* CCOCCCNC(=O)C1(C)CC(c2cc3cc(Br)cnc3c(F)c2F)=NO1 (centres unmarked) [compound 14] | 2.98^[a]
* COc1ccc(CNC(=O)C2(C)CC(c3cc4cc(Br)cnc4c(F)c3F)=NO2)cc1OC (centres unmarked) [compound 19] | 3.02^[a]
* CC1(C(=O)NC2CC2)CC(c2ccc3ncccc3c2)=NO1 (centres unmarked) [compound 3] | 1.04^[a]

Reported Log P of Cc1cc(NC(=O)C2(C)CC(c3cc4cc(Br)cnc4c(F)c3F)=NO2)n(C)n1 (centres unmarked) [compound 18] : 2.6^[a]

Reported Log P of CCn1cc(CNC(=O)C2(C(F)(F)F)CC(c3cc4cc(Br)cnc4c(F)c3F)=NO2)c(C)n1 (centres unmarked) [compound 6] : 3.23^[a]

Reported Log P of CNC(=O)C1(C)CC(c2ccc3ncccc3c2)=NO1 (centres unmarked) [compound 2] : 1.3^[a]

Reported Log P of CCC(C)NC(=O)C1(C)CC(c2cc3cc(Br)cnc3c(F)c2F)=NO1 (centres unmarked) [compound 22] : 3.31^[a]

Reported Log P of CCOCCCNC(=O)C1(C(F)(F)F)CC(c2cc3cc(Br)cnc3c(F)c2F)=NO1 (centres unmarked) [compound 16] : 3.71^[a]

* * *

Each entry below lists one item and its recorded log P value.
assay type: physicochemical; conditions: HPLC on reversed phase columns, method [a]: pH 2.7, 0.1% formic acid in water / acetonitrile, linear gradient 10% to 95% acetonitrile

Reference set, count: 3
- CC(=O)C1(C(=O)NC(C)C)CC(c2ccc3ncc(Br)cc3c2)=NO1 (stereo not shown) [compound 281]: 2.88[a]
- COc1ccncc1CNC(=O)C1(C)CC(c2ccc3ncc(Br)cc3c2)=NO1 (stereo not shown) [compound 670]: 1.40[a]
- CCc1cnc2ccc(C3=NOC(C)(C(=O)NCc4cn(CC)nc4C)C3)cc2c1 (stereo not shown) [compound 256]: 1.72^[a]

Alright, here's another compound for you.
Reported log P of C#Cc1cnc2c(C)cc(C3=NOC(C)(C(=O)NCc4cnc(C)cn4)C3)cc2c1 (stereo not shown) [compound 535] : 2.50[a]

* * *

Test system: Botrytis cinerea
Experiment: In vivo preventive test on Botrytis cinerea (grey mould)
Settings: 500 ppm; gherkin plants sprayed 24 hours before contamination; grading 4-5 days after contamination vs control plants
Method: Gherkin plants (“Vert petit de Paris” variety), sown in starter cups on a 50/50 peat soil-pozzolana substrate and grown at 24° C., are treated at the Z11 cotyledon stage by spraying with the active ingredient prepared as described above. Plants, used as controls, are treated with the mixture of acetone/tween/DMSO/water not containing the active material. […]
measurement_type: % of efficacy (protection) (%)
Answer in %, number only, no unit symbol.

Reference set, count: 4
- CCn1cc(CNC(=O)C2(CC)CC(c3ccc4ncc(Br)cc4c3)=NO2)c(C)n1 (centres unmarked): 93
- CC1(C)OCC(CNC(=O)C2(C)CC(c3ccc4ncc(I)cc4c3)=NO2)O1 (centres unmarked): 100
- C#Cc1cnc2ccc(C3=NOC(C)(C(=O)NCc4ccccc4)C3)cc2c1 (centres unmarked): 100
- CC1(CNC(=O)C2(C)CC(c3ccc4ncc(Br)cc4c3)=NO2)CCCO1 (centres unmarked): 92

Reported % of efficacy (protection) of CCOCCCNC(=O)C1(CC)CC(c2ccc3ncc(Br)cc3c2)=NO1 (centres unmarked) : 98

Reported % of efficacy (protection) of C#Cc1cnc2ccc(C3=NOC(C)(C(=O)NCc4ccsc4)C3)cc2c1 (centres unmarked) : 100

Reported % of efficacy (protection) of C#Cc1cnc2ccc(C3=NOC(C)(C(=O)NCc4ccccc4Cl)C3)cc2c1 (centres unmarked) : 99

Reported % of efficacy (protection) of C#Cc1cnc2ccc(C3=NOC(C)(C(=O)NC4COC4)C3)cc2c1 (centres unmarked) : 82

Reported % of efficacy (protection) of C#Cc1cnc2c(C)cc(C3=NOC(C)(C(=O)NCc4cnc(C)cn4)C3)cc2c1 (centres unmarked) : 100

* * *

details: Table 2, formula (II); method [a]: pH 2.7, 0.1% formic acid in water / acetonitrile gradient
Each entry below lists one item and its recorded Log P value.

• CC1(C(=O)O)CC(c2ccc3ncc(Br)c(Cl)c3c2)=NO1 (centres unmarked) = 2.34[a]

Reported Log P of O=C(O)C1(CF)CC(c2ccc3ncc(Br)cc3c2)=NO1 (centres unmarked) : 1.94[a]

Reported Log P of C#Cc1cnc2c(C)cc(C3=NOC(C)(C(=O)OC)C3)cc2c1 (centres unmarked) : 3.07[a]

Reported Log P of CC1(C(=O)O)CC(c2cc(Cl)c3ncc(Br)cc3c2)=NO1 (centres unmarked) : 2.45[a]

Reported Log P of CCOC(=O)C1(OC)CC(c2cc(C)c3ncc(Br)cc3c2)=NO1 (centres unmarked) : 3.99[a]

Reported Log P of CCOC(=O)C1(C)ON=C(c2ccc3ncc(Br)cc3c2)C1CC (centres unmarked) : 3.74[a]

Reported Log P of COC(=O)C12ON=C(c3ccc4ncc(Br)cc4c3)C1C2C (centres unmarked) : 3.09[a]

Reported Log P of CCOC(=O)C1(CC)CC(c2ccc3ncc(Br)cc3c2)=NO1 (centres unmarked) : 3.53[a]
